Experiment: Cytotoxicity, inhibition of cell growth
Format: cell-based
Details: human, Huh7 cells; read-out: CC50 (cytotoxic concentration that will kill half of the treated cells)
MEASURED_ENDPOINT: CC50 (µM)
Give bare numbers, in µM.

Ask | // query CC50 value for entry "NC(=O)c1cc(-c2ccc(Cl)cc2)cc(-c2ccc(S(N)(=O)=O)cc2)c1N"
Reply | 54.3

* * *

System: Huh7 cells
Experiment: LD content in Huh7 cells pre-treated with insulin, Oil-Red-O staining, absorbance OD 540 nm
Format: cell-based
Conditions: Homo sapiens, Huh-7, Huh7 cells, procedure of Example 3; read-out: LD content inhibition (EC50)
MEASURED_ENDPOINT: EC50

For orientation, consider the following solved cases.
| COMPOUND | EC50 |
| --- | --- |
| NC(=O)c1cc(-c2ccc(Cl)cc2)cc(NCCc2ccc(S(N)(=O)=O)cc2)c1N | 6480 nM |
| CCC(=O)Oc1ccc(-c2cc(C(N)=O)c(N)c(-c3ccc(S(N)(=O)=O)cc3)c2)cc1 | 820 nM |
| COC(=O)c1cccc(Oc2cc(C(N)=O)c(N)c(-c3ccc(S(N)(=O)=O)cc3)c2)c1 | 690 nM |
| NC(=O)c1cc(/C=C/C(=O)Nc2ccc(C(=O)O)cc2)cc(-c2ccc(S(N)(=O)=O)cc2)c1N | 2140 nM |
| CC(=O)Nc1ccc(/C=C/c2cc(C(N)=O)c(N)c(-c3ccc(S(N)(=O)=O)cc3)c2)cc1 | 2850 nM |

Go through the items and report each one's EC50.
1. CC(C)OC(=O)c1ccc(-c2cc(C(N)=O)c(N)c(-c3ccc(S(N)(=O)=O)cc3)c2)cc1
2. Nc1c(C(=O)Nc2ccc(F)c(F)c2)cc(-c2ccc(Br)cc2)cc1-c1ccc(S(N)(=O)=O)cc1
3. NC(=O)c1cc(C2CCC(Br)C2)cc(-c2ccc(S(N)(=O)=O)cc2)c1N (centres unmarked)

Reply |
1300 nM
1070 nM
1760 nM

* * *

Tested on: SREBP-2
Assay: SREBP-2 expression in cultured primary human hepatocytes
Assay type: cell-based
Conditions: Homo sapiens, Hepatocyte, procedure of Example 6, read-out: SREBP-2 mRNA inhibition (EC50)
Source text: FIG. 9. Effects of HPN-01 on the expression of SREBP-1 (master regulator of hepatic glucose metabolism and fatty acid synthesis) and SREBP-2 (master regulator of cholesterol homeostasis in cells) in cultured primary human hepatocytes. […]
MEASURED_ENDPOINT: pEC50
Answers are plain numbers, as −log10 of the molar value.

For orientation, consider the following solved cases.
| CHEMICAL_SMILES | STUDY_SYSTEM | pEC50 |
| --- | --- | --- |
| Nc1c(C(=O)NCCO)cc(-c2ccc(Br)cc2)cc1-c1ccc(S(N)(=O)=O)cc1 | SREBP-2 | 5.37 |
| NC(=O)c1cc(-c2ccc(Cl)cc2)cc(-c2ccc(N3CC=NC3=O)cc2)c1N | SREBP-2 | 5.63 |

Go through the items and report each one's pEC50.
1. NC(=O)c1cc(C#CCOC(=O)c2ccccc2Br)cc(-c2ccc(S(N)(=O)=O)cc2)c1N
2. COc1ccc(C#Cc2cc(C(N)=O)c(N)c(-c3ccc(S(N)(=O)=O)cc3)c2)cc1
3. NC(=O)c1cc(Oc2cccc(Cl)c2)cc(-c2ccc(S(N)(=O)=O)cc2)c1N
4. NCCC(=O)Oc1c(C(N)=O)cc(-c2ccc(Br)cc2)cc1-c1ccc(NC(N)=O)cc1

Reply |
5.15
5.34
4.95
5.42

Go through the items and report each one's pEC50.
1. Nc1c(C(=O)Nc2ccccc2)cc(-c2ccc(Br)cc2)cc1-c1ccc(S(N)(=O)=O)cc1
2. NC(=O)c1cc(/C=C/C(=O)OCCc2ccccc2)cc(-c2ccc(S(N)(=O)=O)cc2)c1N

Reply |
5.26
5.35

* * *

Tested on: Huh7 cells
Assay: LD content in Huh7 cells pre-treated with insulin, Oil-Red-O staining, absorbance OD 540 nm
Type: cell-based
Settings: Homo sapiens, Huh-7, Huh7 cells, procedure of Example 3; read-out: LD content inhibition (EC50)
Procedure: FIG. 6. […] Spectrophotometric absorbance of untreated or HPN-01-treated Huh7 cells pre-incubated with 1 mM insulin is shown. LD contents were stained using Oil Red O, and measured by determining spectrophotometer absorbance under OD 540 nm. Huh7 cells were mock treated or pre-treated with 1 mM insulin, and subsequently treated with indicated amounted of HPN-01. […]
MEASURED_ENDPOINT: EC50 (nM)
One number for each entry, in nM.

For orientation, consider the following solved cases.
| CHEMICAL_SMILES | MEASURED_ENDPOINT | VALUE_REPORTED |
| --- | --- | --- |
| NCCC(=O)Nc1c(C(N)=O)cc(-c2ccc(Br)cc2)cc1-c1ccc(S(N)(=O)=O)cc1 | EC50 | 1150 |
| CCCCCCCOC(=O)/C=C/c1cc(C(N)=O)c(N)c(-c2ccc(S(N)(=O)=O)cc2)c1 | EC50 | 840 |
| Cc1cccc(C(=O)OCC#Cc2cc(C(N)=O)c(N)c(-c3ccc(S(N)(=O)=O)cc3)c2)c1 | EC50 | 610 |
| NC(=O)c1cc(C#CCOC(=O)c2ccccc2Br)cc(-c2ccc(S(N)(=O)=O)cc2)c1N | EC50 | 780 |
| Nc1c(C(=O)NC2CC2)cc(-c2ccc(Cl)cc2)cc1-c1ccc(S(N)(=O)=O)cc1 | EC50 | 690 |
| NC(=O)c1cc(-c2ccc(Cl)cc2)cc(NCc2ccc(S(N)(=O)=O)cc2)c1N | EC50 | 1150 |

Go through the items and report each one's EC50.
1. NC(=O)c1cc(-c2ccc(Br)cc2)cc(Oc2cccc(S(N)(=O)=O)c2)c1N
2. NCC(=O)Nc1c(C(N)=O)cc(-c2ccc(Br)cc2)cc1-c1ccc(S(N)(=O)=O)cc1
3. NC(=O)c1cc(C#CCOC(=O)c2cccc(O)c2)cc(-c2ccc(S(N)(=O)=O)cc2)c1N
4. NCCC(=O)Oc1c(C(N)=O)cc(-c2ccc(Br)cc2)cc1-c1ccc(NC(N)=O)cc1
5. CCOc1ccc(NC(=O)/C=C/c2cc(C(N)=O)c(N)c(-c3ccc(S(N)(=O)=O)cc3)c2)cc1
6. CC(=O)Oc1ccc(-c2cc(C(N)=O)c(N)c(-c3ccc(S(N)(=O)=O)cc3)c2)cc1
7. CC(=O)Nc1ccc(-c2cc(-c3ccc(Cl)cc3)cc(C(N)=O)c2N)cc1

Reply |
1: 660; 2: 2600; 3: 960; 4: 1150; 5: 290; 6: 830; 7: 1070

Go through the items and report each one's EC50.
1. NC(=O)c1cc(-c2ccc(Cl)cc2)cc(-c2ccc(S(N)(=O)=O)cn2)c1N
2. NC(=O)c1cc(Nc2cccc(Cl)c2)cc(-c2ccc(S(N)(=O)=O)cc2)c1N
3. COc1cccc(C(=O)OCC#Cc2cc(C(N)=O)c(N)c(-c3ccc(S(N)(=O)=O)cc3)c2)c1

Reply |
[1140, 2610, 960]

* * *

Give EC50 for every item shown.
Test system: Huh7 cells
Assay: LD content in Huh7 cells pre-treated with insulin, Oil-Red-O staining, absorbance OD 540 nm
Assay type: cell-based
Details: Homo sapiens, Huh-7, Huh7 cells, procedure of Example 3; read-out: LD content inhibition (EC50)
Experimental: FIG. 6. […] Spectrophotometric absorbance of untreated or HPN-01-treated Huh7 cells pre-incubated with 1 mM insulin is shown. LD contents were stained using Oil Red O, and measured by determining spectrophotometer absorbance under OD 540 nm. Huh7 cells were mock treated or pre-treated with 1 mM insulin, and subsequently treated with indicated amounted of HPN-01. […]
One number for each entry, in nM.

| CHEMICAL_SMILES | EC50 / nM |
| --- | --- |
| NC(=O)c1cc(-c2ccc(Cl)cc2)cc(OCc2ccc(S(N)(=O)=O)cc2)c1N | 1450 |
| NC(=O)c1cc(/C=C/c2ccc(Br)cc2)cc(-c2ccc(S(N)(=O)=O)cc2)c1N | 1370 |
| COc1cccc(NC(=O)c2cc(-c3ccc(Br)cc3)cc(-c3ccc(S(N)(=O)=O)cc3)c2N)c1 | 5360 |

--- query ---
Ask | // query EC50 value for entry "Nc1c(C(=O)NCCO)cc(-c2ccc(Cl)cc2)cc1-c1ccc(S(N)(=O)=O)cc1"
Reply | 3050

* * *

System: SREBP-2
Test: SREBP-2 expression in cultured primary human hepatocytes
Format: cell-based
Conditions: Homo sapiens, Hepatocyte, procedure of Example 6, read-out: SREBP-2 mRNA inhibition (EC50)
Give pEC50 for every item shown.
One number for each entry, as −log10 of the molar value.

For orientation, consider the following solved cases.
| COMPOUND | STUDY_SYSTEM | pEC50 |
| --- | --- | --- |
| NC(=O)c1cc(-c2ccc(Cl)cc2)cc(-c2ccc(-c3c[nH]nn3)cc2)c1N [HPN-01421] | SREBP-2 | 5.65 |
| NC(=O)c1cc(C2CCC(Br)C2)cc(-c2ccc(S(N)(=O)=O)cc2)c1N (centres unmarked) [HPN-01321] | SREBP-2 | 5.27 |
| NC(=O)c1cc(-c2ccc(Cl)cc2)cc(Oc2cccc(-c3nn[nH]n3)c2)c1N [HPN-01410] | SREBP-2 | 5.39 |
| NC(=O)c1cc(/C=C/c2cccc(Cl)c2)cc(-c2ccc(S(N)(=O)=O)cc2)c1N [HPN-01102] | SREBP-2 | 5.47 |
| CCOc1ccc(NC(=O)/C=C/c2cc(C(N)=O)c(N)c(-c3ccc(S(N)(=O)=O)cc3)c2)cc1 [HPN-01129] | SREBP-2 | 5.51 |

Go through the items and report each one's pEC50.
1. NC(=O)c1cc(-c2ccc(Cl)cc2)cc(Nc2cccc(S(N)(=O)=O)c2)c1N [HPN-01413]
2. CCCC(=O)Nc1cccc(/C=C/c2cc(C(N)=O)c(N)c(-c3ccc(S(N)(=O)=O)cc3)c2)c1 [HPN-01112]
3. NC(=O)c1cc(/C=C/C(=O)Nc2ccc(C(=O)O)cc2)cc(-c2ccc(S(N)(=O)=O)cc2)c1N [HPN-01121]

Reply |
5.57
5.87
5.09
